- System: HeLa cells
- assayExplanation: Luciferase Protein Expression Assay in HeLa Cells
- Format: cell-based, Human
- conditionDetails: LNPs encapsulating Luciferase mRNA, 25 ng per well, N=4 wells; 5 h serum-free then 24 h; ONE-Glo
Structures can show the parent of a compound that is named as a salt.
Below, each entry is listed with its recorded Average Relative Light Units ± Standard Deviation.

| compound | observed |
| --- | --- |
| CC(C)CCC[C@@H](C)[C@H]1CC[C@H]2[C@@H]3CC=C4C[C@@H](OC(=O)N(CCCCNCCC5(N)CC5)CCC5(N)CC5)CC[C@]4(C)[C@H]3CC[C@]12C [SA124, trihydrochloride] | 45805.9 ± 5630.6 Relative Light Units |

Kindly review the next compound as well.
Form: Entry = CC(C)CCC[C@@H](C)[C@H]1CC[C@H]2[C@@H]3CC=C4C[C@@H](OC(=O)N(CCCCCCCC(C)(C)N)CCC(C)(C)N)CC[C@]4(C)[C@H]3CC[C@]12C [SA152, dihydrochloride] | System = HeLa cells | Average Relative Light Units ± Standard Deviation = ____ 41692.8 ± 9336.8 Relative Light Units

Each recorded value in this set is attributed to patent US20260109732A1.
